Test system: Saccharomyces cerevisiae
Assay: Inhibition of Saccharomyces cerevisiae alpha-glucosidase at 100 uM using p-nitrophenyl alpha-Dglucopyranoside as substrate preincubated for 15 mins followed by substrate addition and measured after 20 mins relative to control

compound	inhibition (%)
C[C@H]1[C@H](C)CC[C@]2(C(=O)O)CC[C@]3(C)C(=CC[C@@H]4[C@@]5(C)C[C@@H](O)[C@H](O)[C@@](C)(COC(=O)/C=C/c6ccc(O)cc6)[C@@H]5CC[C@]43C)[C@H]12	67
C[C@H]1O[C@H](O[C@H]2[C@H](O)[C@@H](O)[C@@H](O[C@H]3[C@H](O)[C@@H](O)C(O)O[C@@H]3CO)O[C@@H]2CO)[C@H](O)[C@@H](O)[C@@H]1N[C@H]1C=C(CO)[C@@H](O)[C@H](O)[C@H]1O (stereo not given in full)	72.8
C[C@H]1[C@H](C)CC[C@]2(C(=O)O)CC[C@]3(C)C(=CC[C@@H]4[C@@]5(C)C[C@@H](O)[C@H](OC(=O)/C=C/c6ccc(O)c(O)c6)[C@@](C)(CO)[C@@H]5CC[C@]43C)[C@H]12	72.8
C=C1CC[C@]2(C(=O)O)CC[C@]3(C)C(=CC[C@@H]4[C@@]5(C)C[C@@H](O)[C@H](OC(=O)/C=C/c6ccc(O)cc6)[C@@](C)(CO)[C@@H]5CC[C@]43C)[C@@H]2[C@H]1C	65.8
C=C1CC[C@]2(C(=O)O)CC[C@]3(C)C(=CC[C@@H]4[C@@]5(C)C[C@@H](O)[C@H](O)[C@@](C)(COC(=O)/C=C\c6ccc(O)cc6)[C@@H]5CC[C@]43C)[C@@H]2[C@H]1C	38.8
C[C@H]1[C@H](C)CC[C@]2(C(=O)O)CC[C@]3(C)C(=CC[C@@H]4[C@@]5(C)C[C@@H](O)[C@H](OC(=O)/C=C/c6ccc(O)cc6)[C@@](C)(CO)[C@@H]5CC[C@]43C)[C@H]12	81.3
C[C@H]1[C@H](C)CC[C@]2(C(=O)O)CC[C@]3(C)C(=CC[C@@H]4[C@@]5(C)C[C@@H](O)[C@H](O)[C@@](C)(COC(=O)/C=C\c6ccc(O)cc6)[C@@H]5CC[C@]43C)[C@H]12	59
C[C@H]1[C@H](C)CC[C@]2(CO)CC[C@]3(C)C(=CC(=O)[C@@H]4[C@@]5(C)CC[C@H](O)C(C)(C)[C@@H]5CC[C@]43C)[C@H]12	34.3
CO[C@@H]1C(O)=C2[C@@H]3[C@@H](C)[C@H](C)CC[C@]3(C)CC[C@@]2(C)[C@]2(C)CC[C@H]3C(C)(C)[C@@H](O)CC[C@]3(C)[C@@H]12	23.9
C=C1CC[C@]2(C(=O)O)CC[C@]3(C)C(=CC[C@@H]4[C@@]5(C)C[C@@H](O)[C@H](OC(=O)/C=C\c6ccc(O)cc6)[C@@](C)(CO)[C@@H]5CC[C@]43C)[C@@H]2[C@H]1C	41.4
